protocolDescription: Solubility
Assay type: physicochemical
experimentalConditions: CETYL-2-ETHYLHEXANOATE
property: Solubility
# answer = value followed by unit

# lookup: Solubility of CCCCCCCCN1C(=O)NC(=Cc2ccc(OC)cc2)C1=O [COM. 1, reference compound]
0.2%

Quick one: Solubility for COc1ccc(C=C2NC(=O)N(CCCCCCCCCCCCCCCC(C)C)C2=O)cc1 [compound 2, 5-(4-METHOXYBENZYLIDENE)-3-[…]] ?
14%

Quick one: Solubility of CCCCC(CC)CN1C(=O)NC(=Cc2ccc(OC)cc2)C1=O (stereo not shown) [COMPOUND 1] ?
2.1%

Fill in the blank: the reported Solubility of CCCCC(CC)COc1ccc(C=C2NC(=O)N(CC(CC)CCCC)C2=O)cc1 (stereo not shown) [COMPOUND 3] is ____.
4%

###

protocolDescription: Reaction with metal ion (colour change after FeCl₃)
Type: physicochemical
experimentalConditions: 0.1g in 10 ml of 99.5% ethyl alcohol plus 2 ml of 0.02% FeCl₃
property: color change of the solution AFTER ADDING FeCl₃

[[record]]
molecule = "COc1ccc(C=C2NC(=O)N(CCCCCCCCCCCCCCCC(C)C)C2=O)cc1 [compound 2, 5-(4-METHOXYBENZYLIDENE)-3-[…]]"
testresult = "NO CHANGE"

[[record]]
molecule = "CCCCC(CC)COc1ccc(C=C2NC(=O)N(CC(CC)CCCC)C2=O)cc1 (stereo not shown) [COMPOUND 3]"
testresult = "NO CHANGE"

[[record]]
molecule = "CCCCC(CC)CN1C(=O)NC(=Cc2ccc(OC)cc2)C1=O (stereo not shown) [COMPOUND 1]"
testresult = "NO CHANGE"

